These measurements were taken from ChEMBL document CHEMBL1126441.

Measured Ratio, listed per entry for reference.
Test: Ratio of 50% fall in mean blood pressure (BP) to rhythmical slow wave activity (RSA) was determined
Type: functional
Could you keep your reply to the number by itself?

# annotated cases, reported Ratio shown
compound	Ratio
CO/N=C(\Cl)C12CCCN(CC1)C2 (stereo unspecified)	11
CO/N=C(\C)C12CCCN(CC1)C2 (stereo unspecified)	1
CO/N=C(\C#N)C12CCCN(CC1)C2 (stereo unspecified)	4

Please find the next compound below.
Given CO/N=C(\F)C12CCCN(CC1)C2 (stereo unspecified) , state its recorded Ratio.
2.5

* * *

Target: Muscarinic acetylcholine receptor
Experiment: In vitro inhibition of oxotremorine-M (OXO-M) binding to muscarinic receptors of rat cerebral cortex
Type: tissue-based
Measured IC50, listed per entry for reference.
A number alone suffices; assume nM.

compound	outcome.measure	readout.number
CO/N=C(\Cl)C12CCCN(CC1)C2 (stereo not given)	IC50	72
CO/N=C(\F)[C@H]1CN2CC[C@H]1C2	IC50	9

Tell me reported IC50 for "CO/N=C(\Cl)C12CCN(CC1)C2" , tested with Muscarinic acetylcholine receptor.
51

* * *

Assay: Partition coefficient (logP)
Format: physicochemical
Conditions: octanol/water
Measured logP, listed per entry for reference.
Could you keep your reply to the number by itself?

molecule	readout.number
CO/N=C(\C)C12CCCN(CC1)C2 (stereo not drawn)	1.65
CO/N=C(\F)C12CCCN(CC1)C2 (stereo not drawn)	1.01

Please find the next molecule below.
Given CO/N=C(\C)C1CN2CCC1CC2 (stereo not drawn) , state its recorded logP.
1.88

* * *

Biological target: Muscarinic acetylcholine receptor
Assay: In vitro inhibition of oxotremorine-M (OXO-M) binding to muscarinic receptors of rat cerebral cortex
Type: tissue-based
Measured IC50, listed per entry for reference.
A number alone suffices; assume nM.

# annotated cases, reported IC50 shown
compound	IC50 [nM]
CO/N=C(\Br)C12CCN(CC1)C2	160
CO/N=C(\C#N)C1CN2CCC1CC2 (configuration not stated)	33
CO/N=C(\Br)C12CCCN(CC1)C2 (configuration not stated)	190

Given "CO/N=C(\F)C12CCN(CC1)C2" , state its recorded IC50.
44

Likewise for CO/N=C(\F)C12CCCN(CC1)C2 (configuration not stated) ?
43

Likewise for CO/N=C(\Cl)C1CN2CCC1CC2 (configuration not stated) ?
69

Likewise for CO/N=C(\C#N)C12CCCN(CC1)C2 (configuration not stated) ?
11

Likewise for "CO/N=C(\C#N)C12CCN(CC1)C2" ?
19

* * *

Measured IC50, listed per entry for reference.
Target: Muscarinic acetylcholine receptor
Assay: In vitro inhibition of oxotremorine-M (OXO-M) binding to muscarinic receptors of rat cerebral cortex
Type: tissue-based
A number alone suffices; assume nM.

# annotated cases, reported IC50 shown
molecule	system	readout.number
CO/N=C(\C#N)[C@H]1CN2CCC1C2 (some centres undefined)	Muscarinic acetylcholine receptor	23
CO/N=C(\F)C1CN2CCC1CC2 (centres undefined)	Muscarinic acetylcholine receptor	34
CO/N=C(\Cl)[C@H]1CN2CC[C@H]1C2	Muscarinic acetylcholine receptor	64

Please find the next molecule below.
Given "CO/N=C(\Br)[C@H]1CN2CC[C@H]1C2" , state its recorded IC50.
59
